Entries and their koff
- assay-system: T1, human IL-12 (human, UniProt P29459 23-219; P29460 23-328)
- T1 construct: recombinant human IL-12 heterodimer (p35/p40, disulfide-linked); also called hIL-12; rhIL-12
- T1 sequence (looked up) 1: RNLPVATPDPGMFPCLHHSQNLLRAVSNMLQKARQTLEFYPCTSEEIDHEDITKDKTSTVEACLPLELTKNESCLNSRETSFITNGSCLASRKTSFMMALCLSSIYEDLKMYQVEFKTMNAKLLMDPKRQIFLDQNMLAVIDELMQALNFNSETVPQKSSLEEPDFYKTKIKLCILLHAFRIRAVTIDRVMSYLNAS
- T1 sequence (looked up) 2: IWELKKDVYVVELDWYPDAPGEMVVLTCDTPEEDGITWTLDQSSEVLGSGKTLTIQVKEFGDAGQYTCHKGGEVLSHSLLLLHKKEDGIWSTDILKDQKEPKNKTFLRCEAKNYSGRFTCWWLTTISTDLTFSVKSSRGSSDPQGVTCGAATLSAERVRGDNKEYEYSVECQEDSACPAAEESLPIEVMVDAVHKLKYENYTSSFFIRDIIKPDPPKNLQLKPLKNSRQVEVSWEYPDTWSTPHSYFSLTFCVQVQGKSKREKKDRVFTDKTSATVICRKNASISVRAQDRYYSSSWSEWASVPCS
- procedure-text: SPR (BIAcore), IL-12 chip
- Text: The system utilizes the optical properties of SPR to detect alterations in protein concentrations within a dextran biosensor matrix. Proteins are covalently bound to the dextran matrix at known concentrations. […] To determine the off rate (koff), on rate (kₒₙ), association rate (Ka) and dissociation rate (Kd) constants, BIAcore kinetic evaluation software (version 2.1) was used.
Could you give me the number in s⁻¹? Just the number is fine.

1. A9 (scFv, V domains shown, scFv) VH: QVQLVQSGGGVVQPGRSLRLSCAASGFTFSSYGMHWVRQAPGKGLEWVAFIRYDGSNKYYADSVKGRFTISRDNSKNTLYLQMKSLRAEDTAVYYCKTHGSHDNWGQGTMVTVSS VL: SYVLTQPPSVSGTPGQRVTISCSGGRSNIGSNTVKWYQQLPGTAPKLLIYGNDQRPSGVPDRFSGSKSGTSASLAITGVQAEDEADYYCQSYDRGPARTSPFGTGTKVTVL
0.00798

Now look at this entry.
What does the record list as koff for A6 (scFv, V domains shown, scFv) VH: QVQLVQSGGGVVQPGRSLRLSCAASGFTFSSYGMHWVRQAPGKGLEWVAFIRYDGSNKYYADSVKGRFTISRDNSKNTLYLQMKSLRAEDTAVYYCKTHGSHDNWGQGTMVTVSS VL: SYVLTQPPSVSGTPGQRVTISCSGGRSNIGSNTVKWYQQLPGTAPKLLIYGNDQRPSGVPDRFSGSKSGTSASLAITGVQAEDEADYYCQSYDRGTHPWLHFGTGTKVTVL ?
0.00187
